# method notes: binders of probe aFGF10 on microarray, primary screen, stem cell growth factor project, biochemical, small-molecule microarray, fluorescence 635/667 (AID 1071);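 further: score merges 667 nm spot intensity and signal to noise from triplicate slides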
# condition notes: higher = more signal
quantity name: composite z-score
Give bare numbers.

molecule	quantity name	data value
CC(C)C(CO)N1C(=O)[C@]2(C)C3C(=O)OCCC/C=C\[C@H]3OC23C=CCN(c2ccc(Cl)cc2)C(=O)[C@@H]13 (some centres undefined)	composite z-score	-0.17
COc1ccc(C(O)C2C=CC3C(=O)N(c4ccccc4)C(=O)C3N2Nc2ccc(C#N)cc2)c2ccccc12 (centres undefined)	composite z-score	0.337
O=C1O[C@@H](c2ccccc2)[C@@H](c2ccccc2)N2[C@@H](c3ccc(O)cc3)[C@]3(C(=O)Nc4ccc(C#CCCO)cc43)[C@@H](C(=O)NC[C@H](O)c3ccccc3)[C@H]12	composite z-score	-0.812

Query block: composite z-score lookup needed for C[C@@H]1ON(c2ccc(C(=O)OC(C)(C)C)cc2)[C@H](c2ccc(Br)cc2)[C@H]1C(=O)N1C(=O)OC[C@H]1Cc1ccccc1 , thanks.
Result block: 0.552

====

# method notes: P. aeruginosa biofilm formation inhibitors, primary screen, strain PAO1, LB-PBS medium, absorbance 600 nm (AID 1176); further: test concentration not given here
# condition notes: P. aeruginosa PAO1 growth/biofilm, A600, 12 h; higher = more signal
Record form. Attribute: z-score. Fill in for each entry.
Give bare numbers.

compound	z-score
COc1ccc(NN2C(C(O)c3ccco3)C=CC3C(=O)N(C4CCCCC4)C(=O)C32)cc1 (centres undefined)	0.546
CN1C(=O)C2C=CC(C(O)Cc3ccccc3)N(N(c3ccccc3)c3ccccc3)C2C1=O (centres undefined)	0.543
O=C1C[C@]2(c3ccc([N+](=O)[O-])cc3)C(=O)N(Cc3ccccc3)c3cc(CO)ccc3[C@H]2N1CC12CC3CC(CC(C3)C1)C2	0.848

Shift focus to the following entry.
Query block: Report z-score for COCCOC(=O)N1C(=O)[C@@]2(c3cc(C#CC4(O)CCCCCC4)ccc31)[C@H](C(N)=O)[C@H]1C(=O)O[C@H](c3ccccc3)[C@H](c3ccccc3)N1[C@@H]2c1ccc(O)cc1 please.
Result block: 0.51

====

# Test system: Wnt5a (protein binding on small-molecule microarray)
# method notes: Wnt5a binders on small-molecule microarray, primary screen, biophysical, 635/667 nm fluorescence (AID 1142);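 further: fluorescence read at 667 nm with signal to noise per printed feature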
# condition notes: 635 nm fluorescence, higher = more signal
quantity name: composite z-score

Worked cases, answers included:
>>> print(df.to_string())
                                   molecule      quantity_name  data_value
0  CCOC(=O)C[C@H]1[C@H](OC(=O)Cc2ccc3c(c2)OCO3)[C@@H](NC(=O)Cc2ccc(OC)cc2)c2cc(OCCCO)ccc2N1C(=O)c1ccccc1  composite z-score       0.194
1  CCOC(=O)C[C@H]1[C@H](OC(=O)c2ccc(-c3ccccc3)cc2)[C@@H](NC(=O)c2ccc3ccccc3c2)c2cc(OCCCO)ccc2N1C(=O)c1ccc2ccccc2n1  composite z-score      0.0577
2  CCCCN1CC=CC23O[C@@H]4C=CCOC(=O)[C@@H]4[C@H]2C(=O)N(CCCO)[C@@H]3C1=O (some centres not stated)  composite z-score      -0.133

Quick request: composite z-score for each listed item, please.
1. C=C(COC)/C(=C/C[C@@H](OC(=O)c1ccncc1)c1ccc(OCCO)cc1)c1cnc2ccccc2c1
2. O=C1NC(=O)C2C1C=CC(C(O)c1ccc(Br)cc1)N2Nc1ccccn1 (configuration not stated)
3. [N-]=[N+]=Nc1ccccc1[C@@H]1OC(c2ccc(OCCCO)cc2)=N[C@]1(CCS(=O)(=O)c1ccccc1)C(=O)NCCN1CCOCC1
4. CN1C(=O)C2C=CC(C(O)c3c(F)cccc3Cl)N(Nc3ccccc3)C2C1=O (configuration not stated)
5. Cc1ccc(S[C@]2(C(=O)NC3CC3)CC(=O)N(Cc3ccccc3Cl)[C@@H]2c2ccc(CO)cc2I)cc1

Result block:
1. 0.884
2. 0.336
3. 0.391
4. 0.438
5. 1.3

Take each entry in turn and give its composite z-score.
1. CCOC(=O)C1=CC[C@@H](c2ccc([N+](=O)[O-])cc2)N(S(=O)(=O)c2ccc(C)cc2)[C@H]1c1ccccc1
2. COc1ccc([Si](C)(C)[C@@H]2[C@@H](CCn3cc([C@H](O)c4ccccc4)nn3)O[C@]3(C(=O)N(Cc4ccc(N5CCOC5=O)cc4)c4ccccc43)[C@H]2C)cc1
3. CCOC(=CC(=O)OC)CC(O)c1cccc(Cl)c1 (configuration not stated)

Result block:
1. 0.503
2. 0.127
3. -0.256

Query block: # query: composite z-score | item COC(=O)[C@]1(CCS(=O)(=O)c2ccccc2)N=C(c2ccc(OCCCO)cc2)O[C@@H]1c1ccccc1CN=[N+]=[N-] | system: Wnt5a (protein binding on small-molecule microarray)
Result block: 0.419
